Values from patent US20180037654A1

target: human CTLA-4 (Y166G and Y183G) expressed on CHO-K1.hCTLA-4 cells (human, UniProt P16410 36-223); test: CELISA on CHO-K1.hCTLA-4 cells
Sequence (P16410 36-223 Y201G/Y218G limits assumed): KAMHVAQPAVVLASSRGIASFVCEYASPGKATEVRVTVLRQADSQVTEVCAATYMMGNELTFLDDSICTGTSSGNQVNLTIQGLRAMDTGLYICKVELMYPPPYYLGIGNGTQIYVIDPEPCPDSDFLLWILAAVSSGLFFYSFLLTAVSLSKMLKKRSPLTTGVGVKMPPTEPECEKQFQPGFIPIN
pEC50: −log10 of the molar value.
Experimental readout: pEC50

hCTLA4.27H3L5 (antibody, human IgG4 S228P, kappa, V domains shown, Humanized, human IgG4 (S228P) kappa; H3 read as hCTLA4.27VH3, L5 as hCTLA4.27VL5) VH: EVQLVQSGAVVAKPGSSVKVSCKASGYSFTTYWMNWVRQAPGQGLEWMGMIHPSDSETSLNQAFKDRVTITADKSTSTAYMELSSLTSEDTAVYYCARMGRRNPYYFDYWGQGTTVTVSS VL: DIQMTQAPSSLSASVGDRVTITCRPSENLYTNLAWYQQKPGKAPKLLLYGATNLADGVPSRFSGSGSGTDYTLTISSLQAEDFATYYCQHLWGTPFTFGGGTKLEIKR ... 10.09
hCTLA4.27H6L1 (antibody, human IgG4 S228P, kappa, V domains shown, Humanized, human IgG4 (S228P) kappa; H6 read as hCTLA4.27VH6, L1 as hCTLA4.27VL1) VH: EVQLLESGPELVRPGSSVKISCKASGYSFTTYWMNWVKQRPGKGLEWIGMIHPSDSETSLNQAFKDKVKLTAATSASIAYLEFSSLRNEDSAVYYCARMGRRNPYYFDYWGQGTLVTVSS VL: DIQMTQSPSSLSASVGDRVTITCRPSENLYTNLAWYQQKPGKAPKLLLYGATNLADGVPSRFSGSGSGTDYTLTISSLQPEDFATYYCQHLWGTPFTFGQGTKLEIKR ... 10.36
